Molecular target: rat FAAH (Rattus norvegicus, UniProt P97612)
Sequence (P97612 whole entry): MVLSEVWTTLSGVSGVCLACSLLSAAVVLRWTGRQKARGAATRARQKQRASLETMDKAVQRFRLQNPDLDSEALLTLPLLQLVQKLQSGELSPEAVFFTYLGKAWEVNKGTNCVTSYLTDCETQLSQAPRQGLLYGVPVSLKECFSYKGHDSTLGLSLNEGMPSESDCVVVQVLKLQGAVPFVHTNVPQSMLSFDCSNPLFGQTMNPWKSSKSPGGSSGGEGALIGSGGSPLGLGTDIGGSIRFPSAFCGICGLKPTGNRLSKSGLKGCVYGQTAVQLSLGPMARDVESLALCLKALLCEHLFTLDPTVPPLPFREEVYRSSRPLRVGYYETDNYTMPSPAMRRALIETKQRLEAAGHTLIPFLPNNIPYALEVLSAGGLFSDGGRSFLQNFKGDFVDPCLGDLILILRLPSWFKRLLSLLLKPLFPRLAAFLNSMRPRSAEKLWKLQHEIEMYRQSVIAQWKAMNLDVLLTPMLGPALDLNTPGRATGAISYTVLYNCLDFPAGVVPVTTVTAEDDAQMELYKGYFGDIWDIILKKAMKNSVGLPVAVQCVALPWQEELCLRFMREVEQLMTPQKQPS
Assay: Assay Method 2: FAAH assay, 3H-anandamide hydrolysis in homogenate of SK-N-MC cells transfected with rat FAAH
Conditions: average of results, > = solubility limit or highest concentration tested
Counter-ions that a name gives are not always drawn.
Property name: IC50

>>> result("O=C(Nc1noc2ccccc12)N1CCC(Cc2cccc(C(F)(F)F)c2)CC1")
"0.047 µM"
>>> result("O=C(Nc1noc2ccccc12)N1CCN(Cc2cccc(Oc3cccc(C(F)(F)F)c3)c2)CC1 [Example 51, trifluoroacetic acid salt]")
"0.029 µM"
>>> result("O=C(Nc1nn[nH]n1)N1CCN(Cc2cccc(Oc3ccc(F)c(C(F)(F)F)c3)c2)CC1")
"0.44 µM"
>>> result("O=C(Nc1cccc2nsnc12)N1CCN(Cc2cccc(Oc3ccc(Cl)c(Cl)c3)c2)CC1 [Example 38, trifluoroacetic acid salt]")
"0.009 µM"
>>> result("O=C(Nc1noc2ccccc12)N1CCN(Cc2cccc(Oc3cnccn3)c2)CC1")
"5 µM"
>>> result("O=C(Nc1cnccn1)N1CCN(Cc2cccc(Oc3ccc4ccccc4c3)c2)CC1")
"0.08 µM"
>>> result("COC(=O)Cc1ccccc1C#Cc1cccc(CN2CCN(C(=O)Nc3noc4ccccc34)CC2)c1")
"0.225 µM"
>>> result("O=C(Nc1noc2ccccc12)N1CCN(Cc2ccc(Br)cc2)CC1")
"0.12 µM"
>>> result("Cc1cnc(NC(=O)N2CCN(Cc3cccc(C#Cc4ccccc4Cl)c3)CC2)cn1")
"4 µM"
>>> result("O=C(Nc1noc2ccccc12)N1CCN(Cc2cc3ccccc3o2)CC1")
"0.2 µM"
>>> result("CCn1nccc1NC(=O)N1CCN(Cc2cccc(Oc3ccc(Cl)cc3)c2)CC1 [Example 193, trifluoroacetic acid salt]")
"6 µM"
>>> result("N#Cc1c(F)cccc1C#Cc1cccc(CN2CCN(C(=O)Nc3noc4ccccc34)CC2)c1")
"0.021 µM"
>>> result("O=C(Nc1cccc2nsnc12)N1CCN(Cc2cccc(Oc3cccc(C(F)(F)F)c3)c2)CC1 [Example 40, trifluoroacetic acid salt]")
"0.015 µM"
>>> result("O=C(Nc1nnn[nH]1)N1CCN(Cc2cccc(Oc3ccc(Cl)c(Cl)c3)c2)CC1")
"0.03 µM"
>>> result("O=C(Nc1noc2ccccc12)N1CCN(Cc2cccc(Oc3ccc(Cl)cc3)c2)CC1 [Example 36, trifluoroacetic acid salt]")
"0.01 µM"
>>> result("O=C(Nc1ccc(Cl)nn1)N1CCN(Cc2cccc(Oc3ccc(Cl)c(Cl)c3)c2)CC1 [Example 43, trifluoroacetic acid salt]")
"0.006 µM"
>>> result("O=C(Nc1cccnn1)N1CCN(Cc2cccc(Oc3ccc(Cl)cc3)c2)CC1")
"0.199 µM"
>>> result("O=C(Nc1ccon1)N1CCN(Cc2cccc(Oc3ccc(F)c(C(F)(F)F)c3)c2)CC1")
"5 µM"
>>> result("N#Cc1ccc(Oc2cccc(CN3CCN(C(=O)Nc4nn[nH]n4)CC3)c2)cc1")
"1 µM"
>>> result("N#Cc1cccc(Oc2cccc(CN3CCN(C(=O)Nc4ccon4)CC3)c2)c1")
"> 10 µM"
>>> result("O=C(Nc1noc2ccccc12)N1CCN(Cc2cccc(OCc3ccccc3)c2)CC1")
"0.26 µM"
>>> result("O=C(Nc1noc2ccccc12)N1CCN(Cc2cccc(C#Cc3ccccc3F)c2)CC1")
"0.046 µM"
>>> result("O=C(Nc1ccc2ccccc2n1)N1CCC(Cc2ccc3ccccc3c2)CC1 [Example 18, trifluoroacetic acid salt]")
"9 µM"
>>> result("O=C(Nc1noc2ccccc12)N1CCN(Cc2cccc(Oc3ccc(Cl)c(Cl)c3)c2)CC1 [Example 50, trifluoroacetic acid salt]")
"0.018 µM"
>>> result("O=C(Nc1nc(-c2ccccc2)ns1)N1CCC(Cc2ccc3ccccc3c2)CC1")
"3 µM"
>>> result("O=C(Nc1noc2ccccc12)N1CCN(Cc2cccc(Oc3ccc(F)cc3)c2)CC1")
"0.017 µM"
>>> result("O=C(Nc1ccc(Cl)nn1)N1CCC(Cc2cccc(C(F)(F)F)c2)CC1")
"1.3 µM"
>>> result("O=C(Nc1ccon1)N1CCN(Cc2ccc(Br)cc2)CC1")
"> 10 µM"
>>> result("O=C(Nc1noc2ccccc12)N1CCN(Cc2cccc(C#Cc3ccccc3OC(F)(F)F)c2)CC1")
"0.256 µM"
>>> result("O=C(Nc1noc2ccccc12)N1CCN(Cc2cccc(Oc3ccc(OCC(F)(F)F)cc3)c2)CC1")
"0.02 µM"
>>> result("O=C(Nc1ccon1)N1CCN(Cc2cccc(Oc3ccc(F)c(F)c3)c2)CC1")
"8 µM"

Data credit: patent US20090062294A1
